Biological target: Heat shock protein HSP90 (Homo sapiens, UniProt P07900+P08238)
Assay: Concentration required to inhibit biotin-GM binding to recombinant heat shock protein 90(rHsp90)
Assay type: protein assay

structure.as.smiles | unit.abbrev | IC50
CO[C@H]1/C=C\C=C(/C)C(=O)NC2=CC(=O)C(NC(=O)c3ccccc3)=C(C[C@@H](C)C[C@H](OC)[C@H](O)[C@@H](C)/C=C(\C)[C@@H]1OC(N)=O)C2=O | nM | 4000
CCOC(=O)NC1=C2C[C@@H](C)C[C@H](OC)[C@H](O)[C@@H](C)/C=C(\C)[C@H](OC(N)=O)[C@@H](OC)/C=C\C=C(/C)C(=O)NC(=CC1=O)C2=O | nM | 3000
CO[C@H]1/C=C\C=C(/C)C(=O)NC2=CC(=O)C(c3ccccc3)=C(C[C@@H](C)C[C@H](OC)[C@H](O)[C@@H](C)/C=C(\C)[C@@H]1OC(N)=O)C2=O | nM | 3000
CO[C@H]1/C=C\C=C(/C)C(=O)NC2=CC(=O)C(NC(=O)OCCCCN3CCOCC3)=C(C[C@@H](C)C[C@H](OC)[C@H](O)[C@@H](C)/C=C(\C)[C@@H]1OC(N)=O)C2=O | nM | 1000
CCCN(CCC)Cc1ccc(C(=O)NC2=C3C[C@@H](C)C[C@H](OC)[C@H](O)[C@@H](C)/C=C(\C)[C@H](OC(N)=O)[C@@H](OC)/C=C\C=C(/C)C(=O)NC(=CC2=O)C3=O)cc1 | nM | 3000
COc1ccccc1C(=O)NC1=C2C[C@@H](C)C[C@H](OC)[C@H](O)[C@@H](C)/C=C(\C)[C@H](OC(N)=O)[C@@H](OC)/C=C\C=C(/C)C(=O)NC(=CC1=O)C2=O | nM | 1100
CCN(Cc1ccccc1)Cc1ccc(C(=O)NC2=C3C[C@@H](C)C[C@H](OC)[C@H](O)[C@@H](C)/C=C(\C)[C@H](OC(N)=O)[C@@H](OC)/C=C\C=C(/C)C(=O)NC(=CC2=O)C3=O)cc1 | nM | 1100

====

Target: Heat shock protein HSP90 (Homo sapiens, UniProt P07900+P08238)
Assay: Concentration required to inhibit Bis-ANS activity by recombinant heat shock protein 90 (rHSP90) conformational assay

structure.as.smiles | measured.target | IC50
CO[C@H]1/C=C\C=C(/C)C(=O)NC2=CC(=O)C(NC(=O)c3ccco3)=C(C[C@@H](C)C[C@H](OC)[C@H](O)[C@@H](C)/C=C(\C)[C@@H]1OC(N)=O)C2=O | Heat shock protein HSP90 (Homo sapiens, UniProt P07900+P08238) | 4 µM
CCN(Cc1ccccc1)Cc1ccc(C(=O)NC2=C3C[C@@H](C)C[C@H](OC)[C@H](O)[C@@H](C)/C=C(\C)[C@H](OC(N)=O)[C@@H](OC)/C=C\C=C(/C)C(=O)NC(=CC2=O)C3=O)cc1 | Heat shock protein HSP90 (Homo sapiens, UniProt P07900+P08238) | 1 µM
CO[C@H]1/C=C\C=C(/C)C(=O)NC2=CC(=O)C(NC(=O)c3ccc(CCl)cc3)=C(C[C@@H](C)C[C@H](OC)[C@H](O)[C@@H](C)/C=C(\C)[C@@H]1OC(N)=O)C2=O | Heat shock protein HSP90 (Homo sapiens, UniProt P07900+P08238) | 2 µM
CO[C@H]1/C=C\C=C(/C)C(=O)NC2=CC(=O)C(NC(=O)c3ccc(CN4CCN(c5ccc([N+](=O)[O-])cc5)CC4)cc3)=C(C[C@@H](C)C[C@H](OC)[C@H](O)[C@@H](C)/C=C(\C)[C@@H]1OC(N)=O)C2=O | Heat shock protein HSP90 (Homo sapiens, UniProt P07900+P08238) | 1.3 µM
COc1ccc(N2CCN(Cc3ccc(C(=O)NC4=C5C[C@@H](C)C[C@H](OC)[C@H](O)[C@@H](C)/C=C(\C)[C@H](OC(N)=O)[C@@H](OC)/C=C\C=C(/C)C(=O)NC(=CC4=O)C5=O)cc3)CC2)cc1 | Heat shock protein HSP90 (Homo sapiens, UniProt P07900+P08238) | 1.5 µM

The measured values listed here are drawn from ChEMBL document CHEMBL1149179.
